- STUDY_SYSTEM: UniProt P97266
- Sequence (P97266 whole entry): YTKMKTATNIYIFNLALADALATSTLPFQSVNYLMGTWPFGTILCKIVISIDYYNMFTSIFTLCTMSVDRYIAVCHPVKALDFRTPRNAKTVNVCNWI
- TEST_DETAILS: Antagonist activity at mu opioid receptor in guinea pig caudate assessed as inhibition of DAMGO-stimulated [35S]-GTP[gammaS] binding
EXPERIMENTAL_ENDPOINT: Ki (nM)

{"SMILES_NOTATION": "CC(C)[C@@H](CN1CC[C@@](C)(c2cccc(O)c2)[C@@H](C)C1)NC(=O)[C@H]1Cc2ccc(O)cc2CN1", "NUMERIC_VALUE": 2.16}

* * *

Mu-type opioid receptor (Homo sapiens): reported Ki for various compounds.
Sequence (P35372 whole entry): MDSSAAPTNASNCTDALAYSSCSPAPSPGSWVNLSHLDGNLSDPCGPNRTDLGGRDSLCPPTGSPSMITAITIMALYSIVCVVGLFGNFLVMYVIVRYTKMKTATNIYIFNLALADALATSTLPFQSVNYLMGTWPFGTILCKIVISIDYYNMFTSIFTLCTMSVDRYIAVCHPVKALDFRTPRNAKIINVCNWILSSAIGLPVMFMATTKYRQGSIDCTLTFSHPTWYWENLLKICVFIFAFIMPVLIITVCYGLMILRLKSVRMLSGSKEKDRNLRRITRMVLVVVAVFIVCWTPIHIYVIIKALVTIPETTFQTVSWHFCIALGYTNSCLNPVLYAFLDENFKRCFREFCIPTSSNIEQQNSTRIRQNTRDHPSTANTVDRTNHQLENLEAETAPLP

{"COMPOUND": "C[C@H]1CN(CCCOC(=O)[C@H]2Cc3ccc(O)cc3CN2)CC[C@@]1(C)c1cccc(O)c1", "Ki": "6.55 nM"}
{"COMPOUND": "C[C@H]1CN(CCOC(=O)[C@H]2Cc3ccc(O)cc3CN2)CC[C@@]1(C)c1cccc(O)c1", "Ki": "186 nM"}
{"COMPOUND": "CCOC(=O)C(CN1CC[C@@](C)(c2cccc(O)c2)[C@@H](C)C1)OC(=O)[C@H]1Cc2ccc(O)cc2CN1 (stereo partly drawn)", "Ki": "26.5 nM"}

* * *

- STUDY_SYSTEM: Histamine H1 receptor (Homo sapiens, UniProt P35367)
- Sequence (P35367 whole entry): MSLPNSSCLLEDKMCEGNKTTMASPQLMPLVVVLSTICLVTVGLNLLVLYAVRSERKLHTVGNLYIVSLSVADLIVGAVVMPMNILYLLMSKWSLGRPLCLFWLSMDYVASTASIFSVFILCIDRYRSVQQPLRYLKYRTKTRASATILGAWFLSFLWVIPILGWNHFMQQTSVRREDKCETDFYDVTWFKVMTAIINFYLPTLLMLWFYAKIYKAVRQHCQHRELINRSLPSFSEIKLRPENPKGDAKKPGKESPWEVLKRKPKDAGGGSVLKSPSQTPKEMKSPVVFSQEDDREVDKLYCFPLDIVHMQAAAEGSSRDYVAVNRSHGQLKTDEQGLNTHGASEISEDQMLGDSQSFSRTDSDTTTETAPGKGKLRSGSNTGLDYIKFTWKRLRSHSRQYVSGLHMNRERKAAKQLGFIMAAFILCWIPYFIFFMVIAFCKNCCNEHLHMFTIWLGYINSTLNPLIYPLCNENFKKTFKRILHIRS

{"SMILES_NOTATION": "Cc1ccc(S(=O)(=O)NCc2ccc(C(=O)NCCN(Cc3ccccc3)C(C)C)cc2)cc1", "Ki": "< 1000 nM"}

* * *

- STUDY_SYSTEM: Delta-type opioid receptor (Homo sapiens)
- Sequence (P41143 whole entry): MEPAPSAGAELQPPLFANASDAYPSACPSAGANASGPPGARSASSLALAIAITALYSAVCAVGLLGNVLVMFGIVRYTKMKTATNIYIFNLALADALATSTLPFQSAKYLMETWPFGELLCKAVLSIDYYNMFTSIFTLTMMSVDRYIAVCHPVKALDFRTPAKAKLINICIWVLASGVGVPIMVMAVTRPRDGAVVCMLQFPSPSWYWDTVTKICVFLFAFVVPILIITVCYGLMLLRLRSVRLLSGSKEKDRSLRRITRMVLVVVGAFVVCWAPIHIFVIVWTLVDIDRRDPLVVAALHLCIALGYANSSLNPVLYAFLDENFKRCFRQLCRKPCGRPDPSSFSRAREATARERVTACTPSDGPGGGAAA
- TEST_DETAILS: Agonist activity at human cloned delta opioid receptor expressed in CHO cells assessed as stimulation of [35S]-GTP[gammaS] binding
Each entry below carries its recorded EC50.

{"COMPOUND": "CC1CN(CCCc2ccccc2)C2C[C@H](N)CC1(c1cccc(O)c1)C2 (some centres not stated)", "RESULT_OPERATOR": "=", "EC50 [µM]": 7.5}
{"COMPOUND": "CC1CN(CCCc2ccccc2)C2C[C@H](NCC3CC3)CC1(c1cccc(O)c1)C2 (some centres not stated)", "RESULT_OPERATOR": ">", "EC50 [µM]": 5}

* * *

- TEST_DETAILS: Half life in rat at 10 mg/kg, po
- Type: ADME, organism-based
- Design: dose 10 mg/kg, route oral
- MEASUREMENT_CONDITIONS: in vivo
EXPERIMENTAL_ENDPOINT: half-life (h)

{"MOLECULE": "Cc1cc(C)cc([C@@H]2CCCN2Cc2ccc(Oc3ccc(C(N)=O)cc3F)cc2)c1 [ATICAPRANT]", "NUMERIC_VALUE": 3.8}
